The reported numbers originate from PubChem BioAssay (NCI).

Entries annotated with measured growth
# System: HL-60(TB) leukemia
# Assay name: NCI-60 one-dose screen, 48 h (100 = growth as untreated, 0 = no growth, -100 = all killed)
# Applied conditions: 10 µM unless noted
The panel holds about 83,000 compounds, 20% with a hit somewhere; the sample as a whole holds those more often.
Value kind: growth (%)

* COc1cc(C2CC(=O)c3c(C)nn(-c4nc5ccccc5[nH]4)c3C2)cc(OC)c1OC (stereo not given) | 132
* COc1cc(/C=C\c2cc(/C=C\c3ccc(O)c(OC)c3)n(C(=O)COc3ccc(Cl)cc3Cl)n2)ccc1O | -18.7
* O=C1C=C(C(O)c2ccc(O)cc2)C(=O)c2ccccc21 (stereo not given) | 98.4
* Nc1nc(-c2ccccc2)nc(N)c1N=O | 18.8
* CCOC(=O)c1cc(C(=O)c2cc(OC)c(OC)c(OC)c2)n2ncccc12 | -32.5
* COc1cc(NC(C)CCCN2C(=O)c3ccccc3C2=O)c2ncccc2c1OC (stereo not given) | -96.9
* N#Cc1ccc(OCc2nc(N)nc(N)c2-c2ccc(Cl)c(Cl)c2)cc1 | 21.7
* O=C(/C=C/c1cccc2ccccc12)Nc1ncc(Cc2ccccc2)s1 | -11
* CC(C)=CCc1cc2c(cc1O)C1=C(C(=O)C3=C(NCCS3(=O)=O)C1=O)C(C=C(C)C)O2 (stereo not given) | -35.2
* CCOc1ccc(S(=O)(=O)c2ccc(C)cc2)c2c1no[n+]2[O-] | 85.7

* * *

# Test system: HL-60(TB) leukemia
# Assay name: NCI-60 one-dose screen, 48 h
# Applied conditions: 10 µM unless noted
# Description: Growth inhibition of the HL-60(TB) human tumor cell line is measured as a screen for anti-cancer activity. Cells are grown in 96 well plates and exposed to the test compound for 48 hours. Compounds are tested at a single concentration, which is 10^-5 M for most compounds. The reported endpoint is percent growth (GI% or GIPRCNT), where numbers from 0 - 100% represent growth inhibition, and numbers from -100% - 0 represent cell death. For example, a value of 40 represents 60% growth inhibition. […]
About 83,000 compounds went through this panel and 20% of them were active in at least one assay; those are over-represented in the sample as a whole. Calls of active or inactive are those of the source. The calls were made as follows: active = growth percent below 10; inactive = the rest.
Classes used: TRUE (active), FALSE (inactive)

• O=C(c1cc(-c2ccc(Cl)cc2)nc2ccccc12)N1N=C(c2ccccc2)CC1c1cc(-c2ccccc2)nn1-c1ccccc1 (stereo not drawn) = FALSE
• O=C(Nc1ccc(Cl)cc1F)c1ccccc1O = FALSE
• C/C(O)=C(/C=N\C(=S)Nc1ccc(S(=O)(=O)Nc2nccs2)cc1)C(=O)Nc1ccccc1C = FALSE
• COc1cccc(-c2nn(-c3ccccc3)cc2-c2ccnc(NCCNC(=O)Nc3cccc(C(F)(F)F)c3)c2)c1 = TRUE
• OCc1cnccc1NC12CC3CC(CC(C3)C1)C2 = FALSE
• CCOC(=O)c1c[nH]c2cc(OCC3CC3)c(OCC3CC3)cc2c1=O = FALSE
• COc1cc(-c2nc3ccccc3[nH]2)ccc1OCc1nnc(-c2ccc(CC(C)C)cc2)o1 = FALSE
• COc1ccc(-c2nc(NC(=O)CS(=O)(=O)c3ccc(F)cc3)sc2C)cc1 = FALSE
• c1nc(SC2=NCCN2)c2[nH]cnc2n1 = FALSE
• c1ccc(-c2ccc3ccccc3c2)cc1 = FALSE
• COc1ccc(Cl)cc1Nc1nc(C(F)(F)F)ccc1C(=O)N/N=C/c1cc(OC)c(OC)c(OC)c1 = TRUE
• NC(=S)N/N=C1\CCCC(C(F)(F)F)C1 (stereo not drawn) = FALSE
• CCN(CC)CCc1nc(-c2ccccc2)no1 = FALSE
• CN1CCN(C(=O)[C@]2(C)CC[C@]3(C)CC[C@]4(C)C(=CC(=O)[C@@H]5[C@@]6(C)CCC(=O)NC(C)(C)[C@@H]6CC[C@]54C)[C@@H]3C2)CC1 = FALSE
• CCCOC(=O)C1c2cc3c(cc2CC(C)C1C(=O)OCCC)OCO3 (stereo not drawn) = FALSE
• O=C(O)CCCCCCCCCCCCCCC(=O)O = FALSE
• N#CC1=C(N)Oc2c(ccc3ccccc23)C1c1ccc([N+](=O)[O-])cc1 (stereo not drawn) = FALSE
• COC(=O)c1cc(=O)nc(N/N=C/c2ccccc2O)s1 = FALSE
• COc1cc2nc(-c3ccc(C(F)(F)F)cc3)cc(OCCCN3CCC(O)CC3)c2cc1OC = FALSE
• CCN1c2ccccc2C(Cl)(c2ccc(N(C)C)cc2)c2ccccc21 = FALSE
• CC1=C([Se]CC(OC(=O)CC[Se]c2ccccc2)C(=O)NCCCCCC(=O)OCc2ccccc2)C(=O)c2ccccc2C1=O (stereo not drawn) = FALSE
• CCCCCCCCCCCCCCNC(=O)Nc1ccc(Cl)c(Cl)c1 = FALSE
• CCOC(=O)c1ccc(Nc2sc(C(=O)c3ccc(Br)cc3)c(N)c2C#N)cc1 = TRUE
• O=C(CC(SCc1ccccc1)c1ccccc1)c1ccccc1 (stereo not drawn) = FALSE
• CCOc1cccc(Nc2nc(N)nc3[nH]c4ccc(O)cc4c23)c1 = FALSE
• CCCC1(CN2c3ccccc3Sc3ccc(Cl)cc32)CCN(CC)C1 (stereo not drawn) = FALSE
• CCCCOC(=O)OCc1cc(=O)c(O)co1 = FALSE
• CCCCCCCCCCCCCCCCNC(=S)N/N=C/c1ccc(O)cc1O = FALSE
• O=C(CSc1nc2sc3c(c2c(=O)n1-c1ccccc1)CCCCC3)N/N=C/c1ccc(F)cc1 = FALSE
• O=C1C(Cl)=C(Nc2ccc(O)cc2)C(=O)N1Cc1ccc(Cl)cc1 = FALSE
• CCOC(=O)NC(/C=C/c1ccccc1)NC(=O)OCC = FALSE
• CC1=C(C(=O)OC(C)C)C(c2ccc3c(c2)OCO3)NC(=S)N1 (stereo not drawn) = FALSE
• CCOC(=O)C1=C(N)Oc2c(sc3c(C)cccc23)C1c1ccc(OC)cc1 (stereo not drawn) = TRUE
• N#Cc1c(N)nc2c(nnn2-c2cccc(C(F)(F)F)c2)c1N = FALSE
• O=C(Nc1nc2ccc(S(=O)(=O)Nc3ccc(C4(C(F)(F)F)CC4)cc3)cc2[nH]1)c1cnccn1 = TRUE
• C=CCn1c(SCC(=O)NCc2cc(C)c(O)c(C)c2)nc2ccc(Cl)cc2c1=O = FALSE
• c1ccc2c(c1)Oc1cccnc1-n1nccc1-2 = FALSE
• CCCN(CCC)C(=O)c1ccc(C)cc1 = FALSE
• COc1cc(NC(=O)CCSc2nc3ccccc3c(=O)n2CCc2ccccn2)cc(OC)c1OC = FALSE
• CCOC(=O)c1sc2ncc(-c3ccc(C)cc3)n2c1C = FALSE
• Nc1nc(N)c(C=Nc2ccc(Br)cc2)c(Nc2ccc(Br)cc2)n1 = FALSE
• COc1ccccc1NC(=O)N=Nc1c(O)[nH]c2ccccc12 = FALSE
• Cc1ccc2c(c1)sc(-c1ccc(N(C)C)cc1)[n+]2C = TRUE
